molecular target: Hepatocyte nuclear factor 6 (Homo sapiens) (UniProt Q9UBC0); test: ATG_HNF6_CIS: Attagene CIS-FACTORIAL HepG2 Assay for human Hepatocyte Nuclear Factor 6 (HNF6) (AID 2282952); settings: HepG2 Attagene cis-factorial HNF6 reporter transcription; actives raise or lower the signal
Sequence (Q9UBC0 whole entry, looked up): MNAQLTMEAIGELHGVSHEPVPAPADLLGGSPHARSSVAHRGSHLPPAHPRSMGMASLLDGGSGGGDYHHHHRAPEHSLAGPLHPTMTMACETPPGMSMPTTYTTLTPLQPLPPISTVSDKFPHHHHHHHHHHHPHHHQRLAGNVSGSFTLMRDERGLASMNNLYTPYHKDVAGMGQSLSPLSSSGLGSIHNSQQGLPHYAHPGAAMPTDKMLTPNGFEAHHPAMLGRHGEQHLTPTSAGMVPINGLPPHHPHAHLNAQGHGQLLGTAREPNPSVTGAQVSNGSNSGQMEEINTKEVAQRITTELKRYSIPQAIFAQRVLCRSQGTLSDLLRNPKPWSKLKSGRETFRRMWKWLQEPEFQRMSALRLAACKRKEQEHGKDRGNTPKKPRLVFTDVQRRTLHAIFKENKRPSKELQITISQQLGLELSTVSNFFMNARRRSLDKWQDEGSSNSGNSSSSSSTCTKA
Calls of active or inactive are those of the source. The calls were made as follows: active = hit-call score of the fitted dose curve at least 0.9, where 1 is the maximum; inactive = score below 0.9.
Please answer using one outcome listed in yes for active, no for inactive

Here's what some known entries look like.
Query string: Can you look up the reported call for Cc1c(C)c2c(c(C)c1O)CCC(C)(COc1ccc(CC3SC(=O)NC3=O)cc1)O2 (configuration not stated) for me?
Result string: no

Query string: Can you look up the reported call for `CCCCCCCCCCCCCCOS(=O)(=O)O` for me?
Result string: no

Query string: Can you look up the reported call for `CS(=O)(=O)c1ccc([C@@H](C[C@H]2CCC(=O)C2)C(=O)Nc2cnccn2)cc1Cl` for me?
Result string: no

Query string: Can you look up the reported call for `CCCC[C@H]1CN(CC2CCOCC2)C(=O)OC12CCN(C1(C)CCN(C(=O)c3c(C)ncnc3C)CC1)CC2` for me?
Result string: no

Query string: Can you look up the reported call for `O=C1OC(c2ccc(O)cc2)(c2ccc(O)cc2)c2ccccc21` for me?
Result string: yes

Query string: Can you look up the reported call for CCCCC(CC)COP(=O)(OCC(CC)CCCC)OCC(CC)CCCC (configuration not stated) for me?
Result string: no

Query string: Can you look up the reported call for `CN(C)C(=O)NC1(c2ccccc2)CCN(CCC[C@]2(c3ccc(Cl)c(Cl)c3)CCCN(C(=O)c3ccccc3)C2)CC1` for me?
Result string: no

Query string: Can you look up the reported call for `Cc1occc(=O)c1O` for me?
Result string: no

***
Query string: Can you look up the reported call for `O=Cc1ccccc1C=O` for me?
Result string: no

Query string: Can you look up the reported call for `O=C(NS(=O)(=O)/C=C/c1cccs1)c1ccc(F)cc1Br` for me?
Result string: no

Query string: Can you look up the reported call for `C/C=C/c1ccc(OC)cc1` for me?
Result string: no

Query string: Can you look up the reported call for `CCOCCOCCO` for me?
Result string: no

Query string: Can you look up the reported call for `CC(=O)S[C@H](C(=O)N[C@H]1Cc2ccccc2[C@H]2CCC[C@@H](C(=O)O)N2C1=O)C(C)C` for me?
Result string: no

Query string: Can you look up the reported call for `CC(C)(C)c1ccccc1` for me?
Result string: no

Query string: Can you look up the reported call for `CCCCOC(=O)CCCCC(=O)OCCCC` for me?
Result string: no

Query string: Can you look up the reported call for `CC1(C)C(=O)NC(=O)N1CO` for me?
Result string: no

Query string: Can you look up the reported call for `NC(=Nc1ccccc1)Nc1ccccc1` for me?
Result string: no

Query string: Can you look up the reported call for CCCCC(CC)CO (configuration not stated) for me?
Result string: no

Query string: Can you look up the reported call for `Cc1ccc(-c2cc(C(F)(F)F)nn2-c2ccc(S(N)(=O)=O)cc2)cc1` for me?
Result string: no

Query string: Can you look up the reported call for `CO[C@@H]1COCC[C@@H]1N[C@@H]1CC[C@@](C(=O)N2CCc3ncc(C(F)(F)F)cc3C2)(C(C)C)C1` for me?
Result string: no

###

read-out: Forkhead box O1 (FOXO1), FOXO1 (gene 2308); test: LTEA_HepaRG_FOXO1: Life Technologies and Expression Analysis (LTEA) Assay for Forkhead box O1 (FOXO1) using HepaRG (AID 2283456); settings: mRNA level, 48 h; actives raise or lower the signal
Calls of active or inactive are those of the source. How the source made its calls: active means hit-call score of the fitted dose curve at least 0.9, where 1 is the maximum; inactive means score below 0.9.
Please answer using one outcome listed in active, inactive

Here's what some known entries look like.
Query string: Can you look up the reported call for CCC(C)N(C)C(=O)c1cc2ccccc2c(-c2ccccc2Cl)n1 (centres undefined) for me?
Result string: inactive

Query string: Can you look up the reported call for `O=Cc1ccccc1C=O` for me?
Result string: inactive

Query string: Can you look up the reported call for `O=C(O)c1[nH]n(-c2ccc(S(=O)(=O)O)cc2)c(=O)c1N=Nc1ccc(S(=O)(=O)O)cc1` for me?
Result string: inactive

Query string: Can you look up the reported call for `CC(C)c1cccc(C(C)C)c1NC(=O)NS(=O)(=O)c1cc(C(C)(C)O)co1` for me?
Result string: inactive

Query string: Can you look up the reported call for `O=NO` for me?
Result string: inactive

We now examine a further compound.
Query string: Can you look up the reported call for `CSc1ccc(Oc2ccc(S(N)(=O)=O)cc2CN(C)C)cc1C` for me?
Result string: inactive

###

target: guinea pig Sigma Receptor, Non-selective Binding, SIGMAR1 (gene 100135589); assay: NVS_OR_gSIGMA_NonSelective: NovaScreen (NVS) Nuclear Receptor Binding Assay for guinea pig Sigma Receptor, Non-selective Binding (AID 2283367)
The source made the active and inactive calls. How the source made its calls: active means hit-call score of the fitted dose curve at least 0.9, where 1 is the maximum; inconclusive means response in the unintended direction; inactive means score below 0.9.
Please answer using one outcome listed in T (active), F (inactive)

Here's what some known entries look like.
Query string: Can you look up the reported call for `CO[C@@H]1COCC[C@@H]1N[C@@H]1CC[C@@](C(=O)N2CCc3ncc(C(F)(F)F)cc3C2)(C(C)C)C1` for me?
Result string: T

Query string: Can you look up the reported call for `CCc1nc(N)nc(N)c1-c1ccc(Cl)cc1` for me?
Result string: T

Query string: Can you look up the reported call for CCC(C)N(C)C(=O)c1cc2ccccc2c(-c2ccccc2Cl)n1 (stereo not given) for me?
Result string: T

***
Query string: Can you look up the reported call for Cc1c(C)c2c(c(C)c1O)CCC(C)(COc1ccc(CC3SC(=O)NC3=O)cc1)O2 (stereo not given) for me?
Result string: T

Query string: Can you look up the reported call for `COc1ccc(OC(F)(F)F)cc1CN[C@H]1CCCN[C@H]1c1ccccc1` for me?
Result string: T

Query string: Can you look up the reported call for `CSc1ccc(Oc2ccc(S(N)(=O)=O)cc2CN(C)C)cc1C` for me?
Result string: T

Query string: Can you look up the reported call for `NC(=Nc1ccccc1)Nc1ccccc1` for me?
Result string: T

Query string: Can you look up the reported call for `CN(C)CCCN1c2ccccc2Sc2ccc(Cl)cc21` for me?
Result string: T

Query string: Can you look up the reported call for `Cn1cnc2c1c(=O)[nH]c(=O)n2C` for me?
Result string: F

Query string: Can you look up the reported call for `CCN(CC)CCOc1ccc(C(=C(Cl)c2ccccc2)c2ccccc2)cc1` for me?
Result string: T

###

read-out: Keratin 19 (KRT19), KRT19 (gene 3880); assay: LTEA_HepaRG_KRT19: Life Technologies and Expression Analysis (LTEA) Assay for Keratin 19 (KRT19) using HepaRG (AID 2283512); details: mRNA level, 48 h; actives raise or lower the signal
Calls of active or inactive are those of the source. The calls were made as follows: active = hit-call score of the fitted dose curve at least 0.9, where 1 is the maximum; inactive = score below 0.9.
Please answer using one outcome listed in YES for active, NO for inactive

Here's what some known entries look like.
Query string: Can you look up the reported call for `CC(=O)O` for me?
Result string: NO

Query string: Can you look up the reported call for `CCc1nc(N)nc(N)c1-c1ccc(Cl)cc1` for me?
Result string: YES

Query string: Can you look up the reported call for `COC(=O)CCC(=O)OC` for me?
Result string: NO

Query string: Can you look up the reported call for `O=[Si]=O` for me?
Result string: NO

Query string: Can you look up the reported call for CC(=O)OC1CC(C)OC(C)O1 (stereo not drawn) for me?
Result string: NO

***
Query string: Can you look up the reported call for `O=C1c2c(O)cccc2Cc2cccc(O)c21` for me?
Result string: NO

###

read-out: Cyclin D2 (CCND2), CCND2 (gene 894); assay: LTEA_HepaRG_CCND2: Life Technologies and Expression Analysis (LTEA) Assay for Cyclin D2 (CCND2) using HepaRG (AID 2283449); conditions: mRNA level, 48 h; actives raise or lower the signal;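 also: CCND2 transcript measured by TaqMan qRT-PCR and normalised to three housekeeping genes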
Activity calls are given as the source filed them. The calls were made as follows: active = hit-call score of the fitted dose curve at least 0.9, where 1 is the maximum; inactive = score below 0.9.
Please answer using one outcome listed in Yes for active, No for inactive

Query string: Can you look up the reported call for `NC1CCCCC1` for me?
Result string: No

Query string: Can you look up the reported call for `CO[C@@H]1COCC[C@@H]1N[C@@H]1CC[C@@](C(=O)N2CCc3ncc(C(F)(F)F)cc3C2)(C(C)C)C1` for me?
Result string: No

Query string: Can you look up the reported call for `CSc1ccc(Oc2ccc(S(N)(=O)=O)cc2CN(C)C)cc1C` for me?
Result string: No

Query string: Can you look up the reported call for `CCCC(=O)O` for me?
Result string: No

Query string: Can you look up the reported call for `Cn1cnc2c1c(=O)[nH]c(=O)n2C` for me?
Result string: No

Query string: Can you look up the reported call for `O=C1O[C@H]([C@H](O)CO)C(O)=C1O` for me?
Result string: No

Query string: Can you look up the reported call for `CC(=O)S[C@H](C(=O)N[C@H]1Cc2ccccc2[C@H]2CCC[C@@H](C(=O)O)N2C1=O)C(C)C` for me?
Result string: No

Query string: Can you look up the reported call for `CC(=O)O` for me?
Result string: No

We now examine a further molecule.
Query string: Can you look up the reported call for CC(=O)CC(c1ccccc1)c1c(O)c2ccccc2oc1=O (stereo unspecified) for me?
Result string: No
